Values from PubChem BioAssay (NCI)

# Test system: LOX IMVI melanoma
# experiment_summary: NCI-60 one-dose screen, 48 h
# protocol_conditions: 10 µM unless noted
About 83,000 compounds went through this panel and 20% of them were active in at least one assay; those are over-represented in the sample as a whole. Activity calls are given as the source filed them. How the source made its calls: active means growth percent below 10; inactive means the rest.
Hi there, use one of these labels in your reply, thanks! active, inactive

**Q:** Can you look up the reported call for "COc1cc(C=O)ccc1Oc1ccc([N+](=O)[O-])cc1[N+](=O)[O-]" for me?
**A:** inactive

**Q:** Entry to check: "O=C(CCCOc1ccc(Br)cc1)Nc1ncc(Cc2ccc(F)cc2)s1"
**A:** inactive

**Q:** Consider next the compound "CCOC(=O)c1cc2c(n1Cc1cc(OC)cc(OC)c1Br)-c1nc(NC(C)=O)sc1CCC2" in the same way.
**A:** inactive

**Q:** Next record, please: "Cc1nn(-c2nc(-c3cc4ccccc4oc3=O)cs2)c(C)c1N=Nc1ccccc1"
**A:** inactive

**Q:** Same lookup for CN1CCCc2cc(/C=C3\SC(=S)N(C(Cc4ccc(O)cc4)C(=O)O)C3=O)ccc21 (stereo not given) , please.
**A:** inactive

**Q:** Item: "Clc1nccc2c(-c3csc(-c4c[nH]c5ccc(Br)cc45)n3)c[nH]c12"
**A:** active

**Q:** # iterate: "C=C1C(=O)O[C@@H]2[C@H]3[C@H](COC(C)=O)[C@@H](OC(C)=O)C[C@H]3C(=C)[C@@H](O)C[C@@H]12"
**A:** inactive

**Q:** Would you mind doing CCCN1C(=O)/C(=c2\sc3n(c2=O)C2C(NN=3)N(CC)C(=O)N2CC)c2ccccc21 (stereo not given) as well?
**A:** inactive

**Q:** Ok, now "CCN(CC)CCOc1ccccc1C"
**A:** inactive

**Q:** Next up: "CC(C)(C)CC(N)=O"
**A:** inactive

* * *

# Test system: SK-MEL-28 melanoma
# experiment_summary: NCI-60 one-dose screen, 48 h
# protocol_conditions: 10 µM unless noted
# Experimental: Growth inhibition of the SK-MEL-28 human tumor cell line is measured as a screen for anti-cancer activity. Cells are grown in 96 well plates and exposed to the test compound for 48 hours. Compounds are tested at a single concentration, which is 10^-5 M for most compounds. The reported endpoint is percent growth (GI% or GIPRCNT), where numbers from 0 - 100% represent growth inhibition, and numbers from -100% - 0 represent cell death. For example, a value of 40 represents 60% growth inhibition. […]
About 83,000 compounds went through this panel and 20% of them were active in at least one assay; those are over-represented in the sample as a whole. The source made the active and inactive calls. The calls were made as follows: active = growth percent below 10; inactive = the rest.
# valid calls are active, inactive; nothing else

**Q:** What classification did "Cc1ccc(-c2nc3nc(-c4ccc(F)cc4)nc(N4CCCNCC4)c3o2)cc1" end up with in this test?
**A:** active

**Q:** // query: "COc1ccc(/C=C(\C#N)c2cc3ccccc3[nH]2)cc1"
**A:** inactive

**Q:** Similarly, "CN(C)C(=O)c1cc2cnc(Nc3ccc(-c4csc5c(=S)cc(N6CCOCC6)oc45)cc3)nc2n1C1CCCC1" ?
**A:** active

**Q:** Query "COc1cc(F)c(/C=C/c2cc(/C=C/c3cc(OC)c(OC)cc3F)n(-c3cc(F)cc(F)c3)n2)cc1OC" next
**A:** active

**Q:** How about "O=C1/C(=C/c2cn(-c3ccccc3)nc2-c2ccccc2)SC(=S)N1c1ccccc1" ?
**A:** inactive

**Q:** Also need "N#Cc1cc(-c2ccnc(Nc3ccc(NC(=O)CCl)cc3)n2)ccc1N1CCCC1" , thanks.
**A:** active

**Q:** Repeat with "C#CCn1cnc2cnc(Nc3cccc(NC(=O)CCl)c3)nc21"
**A:** inactive

**Q:** And then "CN1C(=O)/C(=C/c2ccc(C(=O)Nc3ncc(Cc4ccccc4Cl)s3)cc2)SC1=S" , what is it?
**A:** inactive

**Q:** Then "CCN1CCN(C(=O)[C@]23CC[C@@H](C)[C@H](C)[C@@H]2C2=CC[C@@H]4[C@@]5(C)CCC(=O)C(C)(C)[C@@H]5CC[C@@]4(C)[C@]2(C)CC3)CC1" ?
**A:** active

**Q:** Can you handle CC12OC(CC(O)C1O)n1c3ccccc3c3c4c(c5c6ccccc6n2c5c31)C(=O)N(CCN1CCOCC1)C4=O (stereo not drawn) next?
**A:** inactive

**Q:** Cool, now "c1ccc(Cc2cccc[n+]2C(c2ccccc2)c2ccccc2)cc1"
**A:** inactive

**Q:** Also check "COc1ccc(C/C(C)=C(\c2ccc(O)cc2)c2ccc(OCCCN(C)C)cc2)cc1"
**A:** inactive

**Q:** Again, but for "COc1cc(Nc2nc3ccccc3cc2C(=O)Nc2ccc(F)c(F)c2)cc(OC)c1OC"
**A:** inactive

**Q:** Same question, "CC(C)(C)c1cc(C(C)(C)c2ccccc2)cc(Cc2cc(C(C)(C)c3ccccc3)cc(C(C)(C)C)c2O)c1O" this time
**A:** inactive

**Q:** Now consider "O=C(NCCCN1CCCCC1)c1ccc(-c2nc3ccc4[nH]ncc4c3c3c2CCCC3)cc1" and answer again.
**A:** inactive

**Q:** Now the molecule "Cc1ccc(C(=O)c2ccc(CC(=O)N=Nc3c(O)[nH]c4ccc(OC(F)(F)F)cc34)n2C)cc1"
**A:** inactive

**Q:** Now consider "COc1ccc(/C=C2\COc3ccc(O)c(O)c3C2=O)c(OC)c1OC" .
**A:** inactive

**Q:** What about "CC(C)(C)CC(N)=O" ?
**A:** inactive

**Q:** // same read-out, input: COc1ccc(/C=N/C2=C(C#N)C(c3ccccc3)c3c(ccc4ccccc34)O2)cc1 (stereo not drawn)
**A:** inactive

**Q:** Next up: "FC(F)(F)Sc1ccc(/C=C/c2cc(/C=C/c3ccc(SC(F)(F)F)cc3)n(-c3ccccc3)n2)cc1"
**A:** inactive

**Q:** How about CN(C)CCN1C(=O)c2c(c3c4ccccc4n4c3c3c2c2ccccc2n3C2CC(O)C(O)C4(C)O2)C1=O (stereo not drawn) ?
**A:** inactive

**Q:** Try this molecule too: "c1ccc(-c2cc(-c3cc(-c4ccccc4)on3)no2)cc1"
**A:** inactive

**Q:** How about "CCCCn1c(C(=O)c2c[nH]c3ccccc23)n[nH]c1=S" ?
**A:** inactive

**Q:** Similarly, "NC(=O)c1c(NC(=O)/C=C/c2cccs2)sc2c1CCC(=O)C2" ?
**A:** inactive

**Q:** // query: C#CCOc1cccc(Nc2ncc3ncn(C4CCN(C(=O)CCl)C4)c3n2)c1 (stereo not drawn)
**A:** inactive

**Q:** Then this molecule: "Cc1ccc(/C=C/c2c(C(=O)/C=C/c3ccccc3)c(C)nc3ccccc23)cc1"
**A:** inactive

**Q:** Ok, now "O=C(c1ccc(Nc2nccc(NCCCNc3ccnc4cc(Cl)ccc34)n2)cc1)N1CCCCC1"
**A:** inactive

**Q:** Ok, now "Cn1cc(-c2nonc2-c2cn(C)c3ccc(Br)cc23)c2ccccc21"
**A:** inactive

**Q:** What about "O=C1C(=C(O)c2ccccc2)C(=O)c2ccccc21" ?
**A:** inactive

**Q:** And "CC/C(=C(/c1ccc(Cl)cc1)c1ccc(OCCN2CCOCC2)cc1)c1ccccc1" ?
**A:** inactive

**Q:** Repeat for the following molecule: "Cc1cc(N2CCCCC2)nc(NCc2cc(Nc3ccnc4cc(Cl)ccc34)ccc2F)n1"
**A:** active

**Q:** Moving on to "N#C/C(=N\Nc1ccc(Cl)cc1)C(=O)Nc1cc(-c2ccccc2)nn1-c1ccccc1"
**A:** inactive

**Q:** // query: "S=c1nc(CS)[nH]c2ccccc12"
**A:** inactive

**Q:** What do you have for "COc1ccc(S(=O)(=O)Nc2cc(Sc3cccc4cccnc34)c(O)c3ccccc23)cc1" ?
**A:** active

**Q:** Please give the result for CCOC(=O)C1=C(C)NC(=O)NC1c1c(Cl)n(-c2ccccc2)c2ccccc12 (stereo not drawn) too.
**A:** inactive

**Q:** Also, "C=C1C(=O)O[C@H]2[C@H]1CC/C(COC(=O)NCc1ccc(Cn3c(=O)sn(CCCI)c3=O)cc1)=C\CC[C@@]1(C)O[C@@H]21" please.
**A:** active

**Q:** Also need "C[C@@H]1CC[C@@H]2[C@@H]1[C@H](OC(=O)/C=C/c1ccccc1)[C@]1(c3ccccc3)C[C@@H](NC(=O)CO)[C@@]2(C)O1" , thanks.
**A:** inactive

**Q:** Then what about the molecule "CCOC(=O)c1ccc(Nc2ncnc3c2cnn3-c2cccc(F)c2)cc1" ?
**A:** inactive

* * *

# Tested on: SR leukemia
# experiment_summary: NCI-60 one-dose screen, 48 h
# protocol_conditions: 10 µM unless noted
Compounds without any hit were thinned out: in the full panel of roughly 83,000, 20% have a hit. Active and inactive are the calls of the source. How the source made its calls: active means growth percent below 10; inactive means the rest.
Reply using exactly one outcome from y for active, n for inactive

**Q:** How was "CCNC(=O)Oc1ccc(/C(=C(/C)Cc2ccc(OC)cc2)c2ccc(OCCN(CC)CC)cc2)cc1" classified in this test?
**A:** y

**Q:** Can you handle "COc1cc(-c2nc3occn3c2-c2ccnc(NCCCNS(=O)(=O)c3ccc(O)cc3)n2)ccc1F" next?
**A:** n

**Q:** Now the same for "CCOC(=O)c1c(-c2ccc(OC)cc2)c(C#N)c2c(C#N)c(N)nn2c1N"
**A:** y

**Q:** Query "Cc1c(C(C)(C)O)cn2ncnc(Oc3ccc(NC(=O)Nc4ccc(Cl)c(C(F)(F)F)c4)cc3)c12" next
**A:** y

**Q:** Check CCCN1C(=O)/C(=c2\sc3n(c2=O)C2C(NN=3)N(CC)C(=O)N2CC)c2ccccc21 (stereo unspecified) too.
**A:** n

**Q:** Same read-out for "CCC(=C(c1ccc(OCCCN(C)C)cc1)c1ccc(OCCCN(C)C)cc1)c1ccc(Cl)cc1" ?
**A:** y

**Q:** Same question, CCCCCC#CC1OC23CCCCC2C(C#N)(C(=N)O3)C1(C#N)C#N (stereo unspecified) this time
**A:** n

**Q:** Next up: O=C(CC1(O)C(=O)Nc2ccc(Br)cc21)c1ccc(Cl)cc1 (stereo unspecified)
**A:** n

**Q:** Now try "Cc1ccc(NC(=O)c2sc3nc(C)c(C(=O)c4ccccc4)cc3c2N)cc1" .
**A:** n

**Q:** Now consider "Cc1ccc(-c2nc(SCC(=O)c3ccc(C#N)cc3)[nH]c(=O)c2C#N)cc1" and answer again.
**A:** y

**Q:** Queued: "CCCc1cc(C(N)=S)ccn1"
**A:** n

**Q:** Now the compound "O=C(Nc1cc(C(F)(F)F)cc(C(F)(F)F)c1)c1cc(Cl)ccc1O"
**A:** y

**Q:** Next: "CCCNNC(=O)/C=C/c1ccc(CNCCc2c(C)[nH]c3ccccc23)cc1"
**A:** n

**Q:** Try this compound next: "Cc1ccc(Nc2nc(-c3cc(O)c(C)c(C)c3O)cs2)cc1"
**A:** n

**Q:** Then what about the compound "COc1ccc(/C=C2/C(=O)N=C3N2NC(c2ccccc2)=CN3c2ccccc2)cc1" ?
**A:** n

**Q:** Now the same for "COc1ccccc1/C=C1\COc2ccc(O)cc2C1=O"
**A:** n

**Q:** "CCOC(=O)C(=CCC(C)C)C(=O)OCC" , same question.
**A:** n

**Q:** Again, but for "Nc1[nH]nc(Nc2ccccc2)c1-c1nc2ccccc2s1"
**A:** n

**Q:** Then what about the compound "COc1ccc(/C=C(\C#N)c2cc3ccccc3[nH]2)cc1" ?
**A:** n

**Q:** What do we get for "O=C([C@H]1C[C@H]1c1ccc(S(F)(F)(F)(F)F)cc1)N1CCN(c2cc(Cl)ccc2C(F)(F)F)CC1" ?
**A:** n

**Q:** Also check "C=CCNC(=O)Cc1c(-c2ccc(OC)cc2)oc2c(OC)c3c(c(OC)c12)OCO3"
**A:** n
